target.or.system: GDP-bound KRAS wild-type protein (Homo sapiens)
Sequence (P01116 whole entry): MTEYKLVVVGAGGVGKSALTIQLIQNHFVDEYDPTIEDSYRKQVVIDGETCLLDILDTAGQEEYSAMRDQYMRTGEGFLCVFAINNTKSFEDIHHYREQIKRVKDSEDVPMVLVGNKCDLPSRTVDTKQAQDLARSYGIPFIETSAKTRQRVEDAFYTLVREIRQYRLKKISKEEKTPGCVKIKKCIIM
test.summary: Binding to KRAS by surface plasmon resonance (SPR), Single Cycle Kinetics
condition.summary: SPR Single Cycle Kinetics, GDP-bound KRAS wild-type protein, 1:1 binding model; read-out: KRAS KD
Listing of recorded Kd by entry.
recorded.endpoint: Kd

>>> reported_result("CCCOC[C@H]1C(=O)N[C@@H]([C@@H](C)CC)C(=O)N(C)CC(=O)N(C)[C@H]2C/C=C\\CCN(C2=O)[C@@H](Cc2ccc(C(F)(F)F)cc2)C(=O)N(C)CC(=O)N[C@@H](CCc2ccc(C(F)(F)F)c(Cl)c2)C(=O)N2C[C@H](OCC)C[C@H]2C(=O)NC2(CCC2)C(=O)N(C)[C@@H](C2CCCC2)C(=O)N(C)[C@H](C(=O)N(C)CCC)CC(=O)N1C")
"0.11 nM"
>>> reported_result("CCC[C@H]1C(=O)N[C@@H]([C@@H](C)CC)C(=O)N(C)CC(=O)N(C)[C@H]2C/C=C\\CCN(C2=O)[C@@H](Cc2ccc(C(F)F)cc2)C(=O)N(C)CC(=O)N[C@@H](CCc2ccc(Cl)c(Cl)c2)C(=O)N2C[C@H](OC(C)C)C[C@H]2C(=O)NC2(CC(C)(C)C2)C(=O)N(C)[C@@H](C(CC)CC)C(=O)N(C)[C@H](C(=O)N(C)C)CC(=O)N1C")
"0.54 nM"

---

*1 amine or outer side, *2 acyl side, *3 side chain or, on linkers, in order; H or OH if unused. Where a SMILES comes first, the peptide text is derived from it. Bridges are numbered along the chain shown (N, C = ends). [ ]: non-standard residue; d: D form. The star is where a group is joined. hPhe(3,5-F2-4-CF3) = N[C@@H](CCc1cc(F)c(C(F)(F)F)c(F)c1)C(=O)O; hPhe(3-Cl-4-CF3) = N[C@@H](CCc1ccc(C(F)(F)F)c(Cl)c1)C(=O)O; NPrPhe(4-CF3) = CCCN[C@@H](Cc1ccc(C(F)(F)F)cc1)C(=O)O; NMeGly(cPent) = CN[C@H](C(=O)O)C1CCCC1; X44 = CC1(C)CN([*:1])[C@@H]1C(=O)[*:2]; NMeD = CN[C@@H](CC(=O)O)C(=O)O; NMeL = CN[C@@H](CC(C)C)C(=O)O; αMeS = C[C@](N)(CO)C(=O)O; Morpholide = C1CN(*)CCO1; Ac5c = NC1(C(=O)O)CCCC1; Aze = O=C(O)[C@@H]1CCN1; Sar = CNCC(=O)O; tBu = CC(C)(C)*
Read-out record for human lung cancer strain NCI-H441: IC50
recorded.endpoint: IC50 (nM)

>>> reported_result("CCO[C@@H]1C[C@H]2C(=O)NC3(CCC3)C(=O)N(C)[C@@H](C3CCCC3)C(=O)N(C)[C@H](C(=O)N3CCOCC3)CC(=O)N(C)[C@@H](Cc3ccccc3C#N)C(=O)N[C@@H]([C@@H](C)CC)C(=O)N(C)CC(=O)N(C)[C@H]3CCCCCN(C3=O)[C@@H](Cc3ccc(C(F)(F)F)cc3)C(=O)N(C)CC(=O)N[C@@H](CCc3cc(F)c(C(F)(F)F)c(F)c3)C(=O)N2C1")
295
>>> reported_result("CCO[C@@H]1C[C@H]2C(=O)NC3(CC(C)(C)C3)C(=O)N(C)[C@@H](C(CC)CC)C(=O)N(C)[C@H](C(=O)N(C)C)CC(=O)N(C)[C@@H](C(C)C)C(=O)N[C@@H]([C@@H](C)CC)C(=O)N(C)CC(=O)N(C)[C@H]3C/C=C\\CCN(C3=O)[C@@H](CC3CCC(F)(F)CC3)C(=O)N(C)CC(=O)N[C@@H](CCc3ccc(C(F)(F)F)c(Cl)c3)C(=O)N2C1")
76.7
>>> reported_result("CCC(CC)[C@H]1C(=O)N(C)[C@H](C(=O)N(C)C)CC(=O)N(C)[C@@H](COC)C(=O)N[C@@H]([C@@H](C)CC)C(=O)N2CCC[C@H]2C(=O)N(C)[C@H]2C/C=C\\CCN(C2=O)[C@@H](Cc2ccc(C(F)(F)F)cc2)C(=O)N(C)CC(=O)N[C@@H](CCc2ccc(Cl)c(Cl)c2)C(=O)N2C[C@H](OC3CCC3)C[C@H]2C(=O)NC2(CC(C)(C)C2)C(=O)N1C")
86.7
>>> reported_result("CCCN1C(=O)CN(C)C(=O)CN(C)C(=O)[C@H]([C@@H](C)CC)NC(=O)[C@H](CC(C)C)N(C)C(=O)C[C@@H](C(=O)N2CCOCC2)N(C)C(=O)[C@H](C2CCCC2)N(C)C(=O)[C@](C)(COC(C)(C)C)NC(=O)[C@@H]2CCCN2C(=O)[C@H](CCc2cc(F)c(C(F)(F)F)c(F)c2)NC(=O)CN(C)C(=O)[C@@H]1Cc1ccc(C(F)(F)F)cc1 [PP0764] ([NMeL]I[Sar][Sar][NPrPhe(4-CF3)][Sar][hPhe(3,5-F2-4-CF3)]P[αMeS](tBu)[NMeGly(cPent)][NMeD]-Morpholide; lactam N-11)")
215
>>> reported_result("CCCN1C(=O)[C@@H]2CCN2C(=O)[C@H]2N(CC2(C)C)C(=O)[C@H]([C@@H](C)CC)NC(=O)[C@H](CC(C)C)N(C)C(=O)C[C@@H](C(=O)N2CCOCC2)N(C)C(=O)[C@H](C2CCCC2)N(C)C(=O)C2(CCCC2)NC(=O)[C@@H]2CCCN2C(=O)[C@H](CCc2ccc(C(F)(F)F)c(Cl)c2)NC(=O)CN(C)C(=O)[C@@H]1Cc1ccc(C(F)(F)F)cc1 [PP0277] ([NMeL]I[X44][Aze][NPrPhe(4-CF3)][Sar][hPhe(3-Cl-4-CF3)]P[Ac5c][NMeGly(cPent)][NMeD]-Morpholide; lactam N-11)")
6.7

---

Listing of recorded Kd by entry.
target.or.system: GDP-bound KRAS wild-type protein (Homo sapiens)
test.summary: Binding to KRAS by surface plasmon resonance (SPR), Single Cycle Kinetics
condition.summary: SPR Single Cycle Kinetics, GDP-bound KRAS wild-type protein, 1:1 binding model; read-out: KRAS KD
Where a SMILES comes first, the peptide text is derived from it. Bridges are numbered along the chain shown (N, C = ends). [ ]: non-standard residue; d: D form. The star is where a group is joined. hPhe(3-Cl-4-CF3) = N[C@@H](CCc1ccc(C(F)(F)F)c(Cl)c1)C(=O)O; NPrPhe(4-CF3) = CCCN[C@@H](Cc1ccc(C(F)(F)F)cc1)C(=O)O; NMeGly(cPent) = CN[C@H](C(=O)O)C1CCCC1; Hyp = O=C(O)[C@@H]1C[C@@H](O)CN1; NMeD = CN[C@@H](CC(=O)O)C(=O)O; NMeL = CN[C@@H](CC(C)C)C(=O)O; Morpholide = C1CN(*)CCO1; NMeA = CN[C@@H](C)C(=O)O; Ac5c = NC1(C(=O)O)CCCC1; Aze = O=C(O)[C@@H]1CCN1; Ac4c = NC1(C(=O)O)CCC1; Sar = CNCC(=O)O
recorded.endpoint: Kd (nM)

>>> reported_result("CCCN1C(=O)[C@@H]2CCN2C(=O)[C@H](C)N(C)C(=O)[C@H]([C@@H](C)CC)NC(=O)[C@H](CC(C)C)N(C)C(=O)C[C@@H](C(=O)N2CCOCC2)N(C)C(=O)[C@H](C2CCCC2)N(C)C(=O)C2(CCCC2)NC(=O)[C@H](C)NC(=O)[C@H](CCc2ccc(C(F)(F)F)c(Cl)c2)NC(=O)CN(C)C(=O)[C@@H]1Cc1ccc(C(F)(F)F)cc1 [PP0153] ([NMeL]I[NMeA][Aze][NPrPhe(4-CF3)][Sar][hPhe(3-Cl-4-CF3)]A[Ac5c][NMeGly(cPent)][NMeD]-Morpholide; lactam N-11)")
0.33
>>> reported_result("CCCN1C(=O)CN(C)C(=O)CN(C)C(=O)[C@H]([C@@H](C)CC)NC(=O)[C@H](CC(C)C)N(C)C(=O)C[C@@H](C(=O)N(C)C)NC(=O)[C@H](C2CCCC2)N(C)C(=O)C2(CCC2)NC(=O)[C@@H]2C[C@@H](OCC)CN2C(=O)[C@H](CCc2ccc(C(F)(F)F)c(Cl)c2)NC(=O)CN(C)C(=O)[C@@H]1Cc1ccc(C(F)(F)F)cc1 [PP0360] ([NMeL]I[Sar][Sar][NPrPhe(4-CF3)][Sar][hPhe(3-Cl-4-CF3)][Hyp](Et)[Ac4c][NMeGly(cPent)]D-NMe2; lactam N-11)")
0.25

---

Listing of recorded Kd by entry.
target.or.system: UniProt:P01116
test.summary: Binding to KRAS by surface plasmon resonance (SPR), Single Cycle Kinetics
condition.summary: SPR, Single Cycle Kinetics, 1:1 binding model; GDP-bound KRAS wild-type protein; read-out: KRAS KD
recorded.endpoint: Kd

>>> reported_result("CC[C@H](C)[C@@H]1NC(=O)[C@H](CC2CC2)N(C)C(=O)C[C@@H](C(=O)N(C)C)N(C)C(=O)[C@H](C2CCCC2)N(C)C(=O)C2(CCC2)NC(=O)[C@@H]2C[C@H](C)CN2C(=O)[C@H](CCc2cc(F)c(C(F)(F)F)c(F)c2)NC(=O)CN(C)C(=O)[C@H](Cc2ccc(C(F)(F)F)cc2)N2CC/C=C\\C[C@@H](C2=O)N(C)C(=O)CN(C)C1=O")
"0.054 nM"
>>> reported_result("CCO[C@@H]1C[C@H]2C(=O)NC3(CCC3)C(=O)N(C)[C@@H](C(CC)CC)C(=O)N(C)[C@H](C(=O)N3CCOCC3)CC(=O)N(C)[C@@H](CC)C(=O)N[C@@H]([C@@H](C)CC)C(=O)N(C)CC(=O)N(C)[C@H]3C/C=C\\CCN(C3=O)[C@@H](Cc3ccc(C(F)(F)F)cc3)C(=O)N(C)CC(=O)N[C@@H](CCc3cc(F)c(C(F)(F)F)c(F)c3)C(=O)N2C1")
"0.65 nM"
>>> reported_result("CCO[C@@H]1C[C@H]2C(=O)NC3(CCC3)C(=O)N(C)[C@@H](C3CCCC3)C(=O)N(C)[C@H](C(=O)N3CCCCC3)CC(=O)N(C)[C@@H](CC3CC3)C(=O)N[C@@H]([C@@H](C)CC)C(=O)N(C)CC(=O)N(C)[C@H]3C/C=C\\CCN(C3=O)[C@@H](Cc3ccc(C(F)(F)F)cc3)C(=O)N(C)CC(=O)N[C@@H](CCc3cc(F)c(C(F)(F)F)c(F)c3)C(=O)N2C1")
"0.24 nM"
>>> reported_result("CCO[C@@H]1C[C@H]2C(=O)NC3(CCC3)C(=O)N(C)[C@@H](C(CC)CC)C(=O)N(C)[C@H](C(=O)N(C)C)CC(=O)N(C)[C@@H](COC)C(=O)N[C@@H]([C@@H](C)CC)C(=O)N(C)CC(=O)N(C)[C@H]3C/C=C\\CCN(C3=O)[C@@H](Cc3ccc(C(F)(F)F)cc3)C(=O)N(C)CC(=O)N[C@@H](CCc3cc(F)c(C(F)(F)F)c(F)c3)C(=O)N2C1")
"0.16 nM"
>>> reported_result("CCO[C@@H]1C[C@H]2C(=O)NC3(CCC3)C(=O)N(C)[C@@H](C3CCCC3)C(=O)N(C)[C@H](C(=O)N3CCOCC3)CC(=O)N(C)[C@@H](CC)C(=O)N[C@@H]([C@@H](C)CC)C(=O)N(C)CC(=O)N(C)[C@H]3C/C=C\\CCN(C3=O)[C@@H](Cc3ccc(C(F)(F)F)cc3)C(=O)N(C)CC(=O)N[C@@H](CCc3ccc(C(F)(F)F)c(Cl)c3)C(=O)N2C1")
"0.14 nM"
>>> reported_result("CC[C@H](C)[C@@H]1NC(=O)[C@H](CC(C)C)N(C)C(=O)C[C@@H](C(=O)N(C)C)N(C)C(=O)[C@H](C2CCCC2)N(C)C(=O)C2(CCC2)NC(=O)[C@@H]2[C@@H](OCC(F)F)CCN2C(=O)[C@H](CCc2cc(F)c(C(F)(F)F)c(F)c2)NC(=O)CN(C)C(=O)[C@H](Cc2ccc(C(F)(F)F)cc2)N2CC/C=C\\C[C@@H](C2=O)N(C)C(=O)CN(C)C1=O")
"0.13 nM"
